Cited source for all entries: paper PMC9482650

- system.name: T1, SNTG2, Q9NY99
- T1 sequence (Q9NY99 68-166, limits assumed, looked up): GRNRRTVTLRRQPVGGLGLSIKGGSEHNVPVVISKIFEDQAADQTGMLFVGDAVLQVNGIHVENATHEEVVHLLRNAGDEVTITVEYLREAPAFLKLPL
- run.description: holdup assay
- Design: key: below the threshold = too weak to quantify, mostly under pKd 3.1 to 4
- test.parameters: plain residues with an end cap or a label only (N-terminal biotin on a linker: ado-ado)
Use T when the recorded pKd is no lower than 4; use F when it is lower.

- binder: "PDSYHRRDFW [U2AF2, P26368]"
  class.label: "F"
- binder: "TKEIPNCTSV [SORCS3, Q9UPU3]"
  class.label: "F"
- binder: "KIEDVEITLV [FCHSD2, O94868]"
  class.label: "F"
- binder: "GTMFLRETSL [GUCY1A2, P33402]"
  class.label: "T"
- binder: "TFSRRPKTRV [CD226, Q15762]"
  class.label: "F"
